Consider the following IC50 data for human MEK1 (Homo sapiens, UniProt Q02750), collected from several reports.

mol=O=C(NCCCO)c1cc(Br)ncc1Nc1ccc(I)cc1F property_measured=IC50 result="< 1000 nM"
mol=NCCO/N=C/c1cc(C(=O)NOCCO)c(Nc2ccc(I)cc2F)c(F)c1F property_measured=IC50 result="75 nM"
mol=O=c1c2c(Nc3ccc(I)cc3F)cncc2ccn1C[C@@H](O)CO property_measured=IC50 result="≤ 150 nM"
mol=Cn1c(Nc2ccc(I)cc2F)c(C(=O)NOCCO)c2ncccc2c1=O property_measured=IC50 result="< 1000 nM"
mol=NC(=O)c1cc[n+]([O-])cc1Nc1ccc(I)cc1F property_measured=IC50 result="< 1000 nM"
mol=O=C(NOC[C@H](O)CO)c1ccnc(Cl)c1Nc1ccc(I)cc1F property_measured=IC50 result="< 1000 nM"
mol=C[C@H](O)CNC(=O)c1ccncc1Nc1ccc(I)cc1F property_measured=IC50 result="< 1000 nM"
mol=NC(=O)c1c(Nc2ccc(I)cc2F)cc(F)cc1OCCCNS(=O)(=O)c1ccccc1 property_measured=IC50 result="< 250 nM"

Lab note: O=C(c1ccccc1F)c1c[nH]c2ncccc12 gave IC50 of ≤ 10000 nM

Lab note: NC(=O)c1c(Nc2ccc(I)cc2)cc(F)cc1OCC[C@@H](O)CO gave IC50 of < 1000 nM

Lab note: O=C(NCCO)c1cc(Br)ncc1Nc1ccc(I)cc1F gave IC50 of < 1000 nM

---

Consider the following IC50 data for UniProt:Q02750, collected from several reports.

Sample answers from the record:
mol=Nc1cccc(-c2cnc3[nH]cc(C(=O)c4cccc(O)c4)c3c2)c1 tested_target=UniProt:Q02750 property_measured=IC50 result="≤ 10000 nM"
mol=O=C(NCc1cccc(Cl)c1)NCc1c[nH]c2ncccc12 tested_target=UniProt:Q02750 property_measured=IC50 result="≤ 10000 nM"
mol=Cc1cc(I)ccc1Nc1c(C(=O)NOCc2ccoc2)cc(Br)c(F)c1F tested_target=UniProt:Q02750 property_measured=IC50 result="16 nM"
mol=Nc1c(N2CCN(C3CCCCC3)CC2)cc(Nc2ccc(C(=O)O)cc2)c2c1C(=O)c1ccccc1C2=O tested_target=UniProt:Q02750 property_measured=IC50 result="> 10000 nM"
mol=Cn1c(Nc2ccc(I)cc2F)c(NS(=O)(=O)C2(CCO)CC2)ccc1=O tested_target=UniProt:Q02750 property_measured=IC50 result="8.36 nM"

Note: attention shifts to another entry.
Lab note: Cc1cc(I)ccc1Nc1cc(C#N)ccc1C(=O)NOCC1CC1 gave IC50 of 150 to 1500 nM
